- details: in ethyl acetate, 283.15 K
parameter: solubility (mole fraction)

{"smiles_data": "O=C(O)/C=C/c1ccc(Cl)cc1", "recorded_measurement": 0.00159}

* * *

- details: in isopropanol, 293.15 K

{"smiles_data": "O=C(O)/C=C/c1ccc(Cl)cc1", "solubility (mole fraction)": 0.00165}

* * *

- details: in acetone, 288.15 K

{"smiles_data": "O=C(O)/C=C/c1ccc(Cl)cc1", "solubility (mole fraction)": 0.00248}

* * *

- details: in acetone, 283.15 K
parameter: solubility (mole fraction)

{"smiles_data": "O=C(O)/C=C/c1ccc(Cl)cc1", "parameter": "solubility (mole fraction)", "recorded_measurement": 0.00214}
